# PROCEDURE_SUMMARY: AUC in SCID mouse at 25 mg/kg, ip
# Format: ADME, organism-based
# Parameters: dose 25 mg/kg, route intraperitoneal
# CONDITION_INFO: plasma

| COMPOUND | AUC [ng·h/mL] |
| --- | --- |
| CCc1ccccc1C(C(=O)Nc1ccc2[nH]nc(-c3cccc(S(N)(=O)=O)c3)c2c1)N(C)C (racemic) | 3000 |

###

# SYSTEM_UNDER_TEST: UniProt:P33981
# Sequence (P33981 whole entry, the tested form may be a part): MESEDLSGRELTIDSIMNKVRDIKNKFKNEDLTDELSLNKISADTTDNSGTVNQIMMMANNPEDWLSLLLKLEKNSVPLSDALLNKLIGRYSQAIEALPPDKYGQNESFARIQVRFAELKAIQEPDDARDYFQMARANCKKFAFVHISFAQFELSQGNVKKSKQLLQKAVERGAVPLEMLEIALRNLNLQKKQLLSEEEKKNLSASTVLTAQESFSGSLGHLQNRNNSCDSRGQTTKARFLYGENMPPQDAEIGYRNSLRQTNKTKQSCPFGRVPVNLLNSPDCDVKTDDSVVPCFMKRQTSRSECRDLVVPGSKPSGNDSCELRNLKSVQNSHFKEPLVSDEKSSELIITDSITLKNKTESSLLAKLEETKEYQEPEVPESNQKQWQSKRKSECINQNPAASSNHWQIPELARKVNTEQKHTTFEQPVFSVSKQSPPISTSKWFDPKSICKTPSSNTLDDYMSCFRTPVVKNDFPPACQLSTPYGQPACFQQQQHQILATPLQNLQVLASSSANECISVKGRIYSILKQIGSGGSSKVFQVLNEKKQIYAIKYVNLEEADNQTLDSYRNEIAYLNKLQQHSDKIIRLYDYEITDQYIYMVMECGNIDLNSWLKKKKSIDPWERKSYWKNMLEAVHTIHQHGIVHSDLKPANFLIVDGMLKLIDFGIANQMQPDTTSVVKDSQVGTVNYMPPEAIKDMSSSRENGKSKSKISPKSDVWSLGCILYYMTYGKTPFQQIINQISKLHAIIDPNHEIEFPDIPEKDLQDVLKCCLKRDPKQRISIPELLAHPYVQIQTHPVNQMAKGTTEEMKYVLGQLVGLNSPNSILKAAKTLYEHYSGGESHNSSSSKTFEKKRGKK
# PROCEDURE_SUMMARY: Inhibition of SUMO-tagged human TTK (1-275 residues) compound pre-incubated for 15 mins prior ATP addition by MBP-based assay
Define the label as condition met when IC50 is strictly less than 300 nM and as condition not met in all remaining cases.

| COMPOUND | ASSIGNED_LABEL |
| --- | --- |
| NS(=O)(=O)c1cccc(-c2n[nH]c3cccc(Cl)c23)c1 | condition not met |
| NS(=O)(=O)c1cccc(-c2n[nH]c3cc(NC(=O)c4cccs4)ccc23)c1 | condition not met |
| CO[C@@H](C(=O)Nc1ccc2[nH]nc(-c3cccc(S(N)(=O)=O)c3)c2c1)c1ccccc1 | condition met |
| CNC(=O)c1ccc2c(-c3cccc(S(N)(=O)=O)c3)n[nH]c2c1 | condition not met |
| CCc1ccccc1C(C(=O)Nc1ccc2[nH]nc(-c3cccc(S(N)(=O)=O)c3)c2c1)N(C)C (racemic) | condition met |
| NS(=O)(=O)c1cccc(-c2n[nH]c3ccc(NC(=O)Cc4ccncc4)cc23)c1 | condition not met |
| CN(C)C(C(=O)Nc1ccc2[nH]nc(-c3cccc(S(N)(=O)=O)c3)c2c1)c1ccccc1 (racemic) | condition met |
| NS(=O)(=O)c1cccc(-c2n[nH]c3ccc(C(=O)NCc4cccs4)cc23)c1 | condition met |
| NS(=O)(=O)c1cccc(-c2n[nH]c3ccc(NC(=O)C(c4ccccc4)C4CCCC4)cc23)c1 (racemic) | condition met |
